Below: a set of entries, each annotated with reported sfGFP reporter fluorescence.
B1: library; numbered along this chain (parent)
chain: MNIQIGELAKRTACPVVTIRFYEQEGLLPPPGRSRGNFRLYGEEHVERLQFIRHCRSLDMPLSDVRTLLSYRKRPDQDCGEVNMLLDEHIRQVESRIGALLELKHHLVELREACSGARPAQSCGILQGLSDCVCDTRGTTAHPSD

variants of: B1; test: sfGFP reporter fluorescence (15 h) (µM FITC); higher = stronger transcriptional activation; conditions: library round: Round 1; ligand: 1 µM Pb
Kindly provide the number alone.

Some entries whose results are on file:
V16T K104V
0.105
D64T Q127G
0.0887

The value of sfGFP reporter fluorescence measured for the variant E109L D135R turned out to be 0.0959

The value of sfGFP reporter fluorescence measured for the variant G128I D135P turned out to be 0.172

The value of sfGFP reporter fluorescence measured for the variant N83T I97H turned out to be 0.0635

The value of sfGFP reporter fluorescence measured for the variant R33M Q127T turned out to be 0.0614

The value of sfGFP reporter fluorescence measured for the variant P61N E94C turned out to be 0.186

The value of sfGFP reporter fluorescence measured for the variant N83T K104V L107I turned out to be 0.0753

The value of sfGFP reporter fluorescence measured for the variant D135A P143W turned out to be 0.0809

Values compiled from the supplement of paper PMC12783771.
